The measurements presented in this section are drawn from patent US20040024024A1.

target: Human recombinant MMP-2 (Homo sapiens); construct: made in house; host or cells: MMP-2-transfected p2AHT2 cells; test: In vitro MMP inhibition, Ki determination (fluorogenic substrate II); assay type: biochemical; details: value in parentheses
Sequence (P08253 110-660): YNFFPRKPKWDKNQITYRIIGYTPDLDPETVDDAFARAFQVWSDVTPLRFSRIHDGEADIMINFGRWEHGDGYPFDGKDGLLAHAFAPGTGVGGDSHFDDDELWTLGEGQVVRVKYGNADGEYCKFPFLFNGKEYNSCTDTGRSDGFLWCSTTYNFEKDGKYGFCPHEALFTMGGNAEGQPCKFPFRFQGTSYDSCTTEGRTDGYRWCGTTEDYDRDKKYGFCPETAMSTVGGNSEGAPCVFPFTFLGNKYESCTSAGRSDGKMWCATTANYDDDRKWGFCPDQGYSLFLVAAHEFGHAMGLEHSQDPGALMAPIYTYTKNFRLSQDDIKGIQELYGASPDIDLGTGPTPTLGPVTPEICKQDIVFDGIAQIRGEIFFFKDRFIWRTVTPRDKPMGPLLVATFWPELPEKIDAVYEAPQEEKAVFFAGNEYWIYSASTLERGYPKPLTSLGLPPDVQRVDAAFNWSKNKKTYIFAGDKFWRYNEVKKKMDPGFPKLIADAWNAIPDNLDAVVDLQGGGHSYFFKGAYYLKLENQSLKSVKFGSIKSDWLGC

{"columns": ["molecule", "Ki"],
 "data": [
  ["COCCN1CCC(C(=O)NO)(S(=O)(=O)c2ccc(OCCc3cccc(-c4ccc(Cl)cc4)c3)cc2)CC1 [Example 547]", "727 nM"],
  ["O=C(COc1ccc(S(=O)(=O)C2(C(=O)NO)CCOCC2)cc1)c1cccc(-c2ccccc2)c1 [Example 563]", "70.1 nM"],
  ["Cc1ccc(-c2cccc(CCCOc3ccc(S(=O)(=O)C4(C(=O)NO)CCOCC4)cc3)c2)s1 [Example 639]", "505 nM"],
  ["CCCCC(=O)CCCOc1ccc(S(=O)(=O)C2(C(=O)NO)CCOCC2)cc1 [Example 506]", "1.92 nM"]
]}
